Entries and their Effect
- Tested on: Rattus norvegicus
- assay_overview: Percent decrease of hyperglycemia at 30 min after glucose loading(1 g/kg ip) relative to vehicle control in rats at dose 30 mg/kg po.
- Format: functional
- Set-up: scale not given: the % may be the effect or the level left
Your answer should be a plain number; it is taken to be in %.

Worked examples follow.
>  <structure_as_smiles>
O=C(O)CCC(=O)C1CCCCC1

>  <units_label>
%

>  <measurement>
27

$$$$
>  <structure_as_smiles>
C[C@H]1CC[C@H](C(=O)CCC(N)=O)CC1

>  <units_label>
%

>  <measurement>
27

$$$$
>  <structure_as_smiles>
C[C@H]1CC[C@H](C(=O)CCC(=O)O)CC1

>  <units_label>
%

>  <measurement>
41

$$$$

Here `CC(=O)CCC(=O)[C@H]1CC[C@H](C)CC1` was tested on Rattus norvegicus, and its Effect came to 30

Here `C[C@H]1CC[C@@H](C(=O)CCC(=O)O)CC1` was tested on Rattus norvegicus, and its Effect came to 32
